FYI, the data here is from patent US10959986B2.

# Lookup of reported pIC50 keyed by entry
# Target Or System: indoleamine 2,3-dioxygenase (IDO) (Homo sapiens, UniProt P14902)
# Construct: media containing IFNγ (#285-IF/CF, R&D Systems) at a final concentration of 25 ng/mL; endogenous in cells; host or cells: HeLa (ATCC CCL-2), induced with IFN-gamma
# Sequence (P14902 whole entry): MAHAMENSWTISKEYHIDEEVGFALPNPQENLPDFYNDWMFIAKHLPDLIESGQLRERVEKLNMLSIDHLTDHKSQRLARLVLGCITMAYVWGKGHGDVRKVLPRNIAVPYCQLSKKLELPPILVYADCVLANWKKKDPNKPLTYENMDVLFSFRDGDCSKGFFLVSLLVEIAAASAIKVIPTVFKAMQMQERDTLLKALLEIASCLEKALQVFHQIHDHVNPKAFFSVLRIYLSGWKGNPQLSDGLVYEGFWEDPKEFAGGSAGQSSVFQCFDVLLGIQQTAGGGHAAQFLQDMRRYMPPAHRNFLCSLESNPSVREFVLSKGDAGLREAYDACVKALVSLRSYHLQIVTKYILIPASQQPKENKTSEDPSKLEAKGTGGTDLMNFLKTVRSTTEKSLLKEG
# Method Summary: HeLa cell-based indoleamine 2,3-dioxygenase (IDO) assay
# Assay Conditions: HeLa cells with IFNγ 25 ng/mL, 48 hour incubation, kynurenine production; read-out: IDO Hela IC50
Scale for pIC50: -log10 of concentration given in mol/L; no unit attached.

Some entries whose results are on file:
CCOc1ncc(Nc2cc([C@H](CC)CC(=O)O)ccc2-c2c(C)nn(C)c2C)cn1 (single isomer, unassigned)    6.22
CC[C@H](CC(=O)O)c1ccc(-c2cn[nH]c2)c(Nc2ccc(Cl)cc2)c1 (single isomer, unassigned)    7.15
COC[C@@H](CC(=O)O)c1ccc(-c2cnn(Cc3ccc(OC)cc3)c2)c(Nc2ccc(C#N)cc2)c1 (single isomer, unassigned)    7.52
COC[C@H](CC(=O)O)c1ccc(-c2ccc3c(c2)CCO3)c(Nc2ccc(C#N)cc2)c1 (single isomer, unassigned)    7.05
CC[C@H](CC(=O)O)c1ccc(-c2cnn(C)c2)c(Nc2cccc(F)c2)c1 (single isomer, unassigned)    6.42

[ask] Please look up its pIC50: CCOc1ncc(Nc2cc([C@H](CC)CC(=O)O)ccc2-c2ccc(Cl)cc2)cn1 (single isomer, unassigned)
[reply] 6.96

[ask] Please look up its pIC50: CC[C@H](CC(=O)O)c1ccc(-c2nc(-c3ccccc3)cs2)c(Nc2ccc(Cl)cc2)c1 (single isomer, unassigned)
[reply] 7.52

[ask] Please look up its pIC50: CCc1ncc(Nc2cc([C@H](CC)CC(=O)O)ccc2C2CCN(C(=O)OC(C)(C)C)CC2)cn1 (single isomer, unassigned)
[reply] 6.89

[ask] Please look up its pIC50: CC[C@H](CC(=O)O)c1ccc(-c2nnc(C)s2)c(Nc2ccc(Cl)cc2)c1 (single isomer, unassigned)
[reply] 7.52

[ask] Please look up its pIC50: CCc1ncc(Nc2cc([C@@H](CC)CC(=O)O)ccc2-c2sc(C)nc2C)cn1 (single isomer, unassigned)
[reply] 6.41

----------
# Lookup of reported IC50 keyed by entry
# Target Or System: indoleamine 2,3-dioxygenase (IDO) (Homo sapiens)
# Construct: media containing IFNγ (#285-IF/CF, R&D Systems) at a final concentration of 25 ng/mL; endogenous in cells; host or cells: HeLa (ATCC CCL-2), induced with IFN-gamma
# Method Summary: HeLa cell-based indoleamine 2,3-dioxygenase (IDO) assay
# Assay Conditions: HeLa cells with IFNγ 25 ng/mL, 48 hour incubation, kynurenine production; read-out: IDO Hela IC50
The figure you give is taken to be in nM; do not add the unit.

Some entries whose results are on file:
CCOc1ncc(Nc2cc([C@H](CC)CC(=O)O)ccc2-c2ncc(C)cn2)cn1 (single isomer, unassigned) [Example 69]    110
CCOc1ncc(Nc2cc([C@H](CC)CC(=O)O)ccc2-c2ccoc2)cn1 (single isomer, unassigned) [Example 46]    40
CC[C@H](CC(=O)O)c1ccc(C2CCN(C(=O)OC(C)(C)C)CC2)c(Nc2cnc(C)nc2)c1 (single isomer, unassigned) [Example 27]    820

# context switch: different molecule, same IC50
[ask] Please look up its IC50: CCOc1ncc(Nc2cc(C(CC)CC(=O)O)ccc2-c2ccc(OC)c(F)c2)cn1 (single isomer, unassigned) [Example 49]
[reply] 30

----------
# Target Or System: indoleamine 2,3-dioxygenase (IDO) (Homo sapiens, UniProt P14902)
# Construct: media containing IFNγ (#285-IF/CF, R&D Systems) at a final concentration of 25 ng/mL; endogenous in cells; host or cells: HeLa (ATCC CCL-2), induced with IFN-gamma
# Method Summary: HeLa cell-based indoleamine 2,3-dioxygenase (IDO) assay
# Assay Conditions: HeLa cells with IFNγ 25 ng/mL, 48 hour incubation, kynurenine production; read-out: IDO Hela IC50 potency class (A < 50, B < 250, C < 2000)
# Experimental: Assessment of Inhibitor Activity in HeLa Cell-Based Indoleamine 2,3-Dioxygenase (IDO) Assay. […] IDO activity was assessed as a function of kynurenine production as follows: HeLa cells were seeded in a 96-well culture plate at a density of 5,000 cells/well and allowed to equilibrate overnight. […] The percentage activity at each inhibitor concentration was determined and IC50 values assessed using nonlinear regression.
Measurement Kind: IC50

Some entries whose results are on file:
CC[C@H](CC(=O)O)c1ccc(-c2cnn(C)c2)c(Nc2ccccn2)c1 (single isomer, unassigned) [Example 15]    250 to 2000 nM
CCOc1ncc(Nc2cc([C@H](CC)CC(=O)O)ccc2-c2cn3ccccc3n2)cn1 (single isomer, unassigned) [Example 77]    250 to 2000 nM
CCOc1ncc(Nc2cc([C@H](CC)CC(=O)O)ccc2-c2cnc(OCC)nc2)cn1 (single isomer, unassigned) [Example 64]    250 to 2000 nM
COC[C@H](CC(=O)O)c1ccc(-c2cncnc2)c(Nc2ccc(C#N)cc2)c1 (single isomer, unassigned) [Example 43]    250 to 2000 nM

[ask] Please look up its IC50: CCOc1ncc(Nc2cc([C@H](CC)CC(=O)O)ccc2-c2ccc3cncn3c2)cn1 (single isomer, unassigned) [Example 85]
[reply] 250 to 2000 nM

[ask] Please look up its IC50: CCOc1ncc(Nc2cc([C@H](CC)CC(=O)O)ccc2-c2ccc3nc(C)oc3c2)cn1 (single isomer, unassigned) [Example 65]
[reply] 250 to 2000 nM

[ask] Please look up its IC50: CC[C@H](CC(=O)O)c1ccc(C2CCN(C(=O)OC(C)(C)C)CC2)c(Nc2ccc(C#N)cc2)c1 (single isomer, unassigned) [Example 30]
[reply] < 50 nM

[ask] Please look up its IC50: CC[C@H](CC(=O)O)c1ccc(-c2cnn(C)c2)c(Nc2cccc(Cl)c2)c1 (single isomer, unassigned) [Example 7]
[reply] 250 to 2000 nM

[ask] Please look up its IC50: CCOc1ncc(Nc2cc([C@H](CC)CC(=O)O)ccc2-c2c(C)n[nH]c2C)cn1 (single isomer, unassigned) [Example 75]
[reply] 250 to 2000 nM

[ask] Please look up its IC50: CC[C@H](CC(=O)O)c1ccc(-c2cnn(C)c2)c(Nc2cnc(C)nc2)c1 (single isomer, unassigned) [Example 12]
[reply] 250 to 2000 nM

[ask] Please look up its IC50: COC[C@@H](CC(=O)O)c1ccc(-c2cnn(C)c2)c(Nc2ccc(C#N)cc2)c1 (single isomer, unassigned) [Example 33]
[reply] 250 to 2000 nM

[ask] Please look up its IC50: CC[C@@H](CC(=O)O)c1ccc(C2CCN(C(=O)OC(C)(C)C)CC2)c(Nc2ccc(C#N)cc2)c1 (single isomer, unassigned) [Example 32]
[reply] < 50 nM

[ask] Please look up its IC50: CCOc1ncc(Nc2cc([C@H](CC)CC(=O)O)ccc2-c2nc(-c3ccccc3)cs2)cn1 (single isomer, unassigned) [Example 87]
[reply] 250 to 2000 nM

[ask] Please look up its IC50: CCOc1ncc(Nc2cc([C@H](CC)CC(=O)O)ccc2-c2ccc3nonc3c2)cn1 (single isomer, unassigned) [Example 78]
[reply] 250 to 2000 nM

[ask] Please look up its IC50: CCOc1ncc(Nc2cc([C@H](CC)CC(=O)O)ccc2-c2ccn3ccnc3c2)cn1 (single isomer, unassigned) [Example 86]
[reply] 250 to 2000 nM

[ask] Please look up its IC50: CCOc1ncc(Nc2cc([C@H](CC)CC(=O)O)ccc2-c2ccncc2F)cn1 (single isomer, unassigned) [Example 52]
[reply] 250 to 2000 nM

[ask] Please look up its IC50: CC[C@@H](CC(=O)O)c1ccc([C@H]2CC[C@@H](c3ccccc3)CC2)c(NC(=O)Nc2ccc(C)cc2)c1 (single isomer, unassigned) [Example 1-4]
[reply] < 50 nM

[ask] Please look up its IC50: CC[C@H](CC(=O)O)c1ccc(-c2cnn(C)c2)c(Nc2ccc(C#N)cn2)c1 (single isomer, unassigned) [Example 16]
[reply] 250 to 2000 nM

[ask] Please look up its IC50: CCOc1ncc(Nc2cc([C@H](CC)CC(=O)O)ccc2-c2cccc3[nH]ncc23)cn1 (single isomer, unassigned) [Example 50]
[reply] 250 to 2000 nM

[ask] Please look up its IC50: CC[C@H](CC(=O)O)c1ccc(-c2cnn(C)c2)c(Nc2cccnc2)c1 (single isomer, unassigned) [Example 11]
[reply] 250 to 2000 nM

----------
# Target Or System: indoleamine 2,3-dioxygenase (IDO) (Homo sapiens, UniProt P14902)
# Construct: media containing IFNγ (#285-IF/CF, R&D Systems) at a final concentration of 25 ng/mL; endogenous in cells; host or cells: HeLa (ATCC CCL-2), induced with IFN-gamma
# Method Summary: HeLa cell-based indoleamine 2,3-dioxygenase (IDO) assay
# Assay Conditions: HeLa cells with IFNγ 25 ng/mL, 48 hour incubation, kynurenine production; read-out: IDO Hela IC50
# Lookup of reported IC50 keyed by entry
The figure you give is taken to be in nM; do not add the unit.

Some entries whose results are on file:
CCOc1ncc(Nc2cc([C@@H](CC)CC(=O)O)ccc2C2CCN(C(=O)OC(C)(C)C)CC2)cn1 (single isomer, unassigned) [Example 26]    20
CC[C@H](CC(=O)O)c1ccc(-c2cnn(C)c2)c(Nc2ccc(Cl)cc2F)c1 (single isomer, unassigned) [Example 2]    10
CCOc1ncc(Nc2cc([C@H](CC)CC(=O)O)ccc2-c2csc(-c3ccccc3)n2)cn1 (single isomer, unassigned) [Example 82]    110
CCOc1ncc(Nc2cc([C@H](CC)CC(=O)O)ccc2-c2ccc3c(c2)OC(F)(F)O3)cn1 (single isomer, unassigned) [Example 83]    170
CCOc1ncc(Nc2cc([C@H](CC)CC(=O)O)ccc2-c2ccc(OC)cc2F)cn1 (single isomer, unassigned) [Example 53]    30

[ask] Please look up its IC50: CCOc1ncc(Nc2cc([C@H](CC)CC(=O)O)ccc2-c2cccc(C(F)F)n2)cn1 (single isomer, unassigned) [Example 66]
[reply] 750

[ask] Please look up its IC50: CCOc1ncc(Nc2cc([C@H](CC)CC(=O)O)ccc2-c2ccc(C#N)cn2)cn1 (single isomer, unassigned) [Example 62]
[reply] 890

[ask] Please look up its IC50: CC[C@H](CC(=O)O)c1ccc(-c2cnn(C)c2)c(Nc2ccc(C)cc2)c1 (single isomer, unassigned) [Example 10]
[reply] 40

[ask] Please look up its IC50: CCOc1ncc(Nc2cc([C@H](CC)CC(=O)O)ccc2-c2ncc(F)cn2)cn1 (single isomer, unassigned) [Example 63]
[reply] 700
